# test system: DLK (Homo sapiens, UniProt Q12852)
# Construct: 10 nM DLK, catalytic domain, Carna Biosiences; purchased Carna Biosciences ('Carna Biosiences' [sic])
# Sequence (Q12852 125-366 limits assumed): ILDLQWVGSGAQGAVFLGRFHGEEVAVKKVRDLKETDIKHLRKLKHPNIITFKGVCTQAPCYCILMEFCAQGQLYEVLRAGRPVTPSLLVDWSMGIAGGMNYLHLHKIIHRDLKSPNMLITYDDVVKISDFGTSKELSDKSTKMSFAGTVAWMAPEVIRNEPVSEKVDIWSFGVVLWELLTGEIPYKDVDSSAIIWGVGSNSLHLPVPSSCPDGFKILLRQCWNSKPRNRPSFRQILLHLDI
# measurement notes: DLK biochemical assay (TR-FRET, MKK7 phosphorylation)
# condition: DLK catalytic domain, MKK7 substrate, 60 μM ATP
Listing: pIC50 of selected compounds
pIC50 is defined as minus the log10 of a concentration measured in mol/L.

These solved cases illustrate the format of a correct answer.
CC(CF)NC(=O)c1cc(-c2cnn(C(c3ccccc3)C(C)C)c2)cn2nc(N)nc12 (single isomer, unassigned) [Example I-142] :: 8.38
CC(C)C(c1cncc(Cl)c1)n1cc(-c2cc(C(=O)NC(C)(C)CO)c3nc(N)nn3c2)cn1 (single isomer, unassigned) [Example I-174] :: 7.21
CCC(c1ccnc(C(F)(F)F)c1)n1cc(-c2cc(C(=O)N[C@@H](C)CC)n3nc(N)nc3c2)cn1 (mixture of isomers) :: 8.46

According to the records, this compound CCC(c1ccc(C(F)(F)F)nc1)n1cc(-c2cc(C(=O)N[C@H]3CCOC3)n3nc(N)nc3c2)cn1 (single isomer, unassigned) [Example I-179] displays pIC50 of 8.74

Recorded result, CCC(c1ccc(OCC(F)(F)F)nc1)n1cc(-c2cc(C(=O)N[C@@H](C)CC)c3nc(N)nn3c2)cn1 (single isomer, unassigned) [Example I-87] , pIC50: 8.89

// sample CCC(c1ccc(OCC(F)(F)F)nc1)n1cc(-c2cc(C(=O)N[C@H]3CCOC3)n3nc(N)nc3c2)cn1 (mixture of isomers) [Example I-186] , its pIC50 was 8.21

The measured values listed here are drawn from patent US20230086702A1.
